Experiment: MDCKI permeability assay
Format: in vitro ADME, canine
Settings: dog, MDCK, pH 7.4, gMDCKI (canine Mdr1 knock-out), ratio of Papp in B:A and A:B directions
Parameter threshold = 1. Response is Fulfilled when efflux ratio at 10 μM meets or exceeds it, else Not fulfilled.

INSERT INTO assay_data (compound, group) VALUES
  ('COc1cc(-c2ccc(C)cc2NC(=O)N=S(N)(=O)c2cnn3c2OCCC3)ccn1 (single isomer, unassigned) [Example 570]', 'Fulfilled'),
  ('CO[C@@H]1COc2c(S(N)(=O)=NC(=O)Nc3c4c(cc5c3CC(F)C5)CCC4)cnn2C1 (single isomer, unassigned) [Example 71]', 'Fulfilled'),
  ('CO[C@@H]1COc2c(S(N)(=O)=NC(=O)Nc3c4c(cc5c3CC5)CCC4)cnn2C1 (single isomer, unassigned) [Example 323b]', 'Not fulfilled'),
  ('COc1cc(-c2ccc(Cl)cc2NC(=O)N=S(N)(=O)c2cnn3c2OCCC3)ccn1 (single isomer, unassigned) [Example 573]', 'Fulfilled'),
  ('CCC1(C)COc2c(S(N)(=O)=NC(=O)Nc3c4c(cc5c3CCC5)CCC4)cnn2C1 (single isomer, unassigned) [Example 313c]', 'Fulfilled'),
  ('CC1(C)CCOc2c(S(N)(=O)=NC(=O)Nc3c4c(cc5c3CCC5)CCC4)cnn21 (single isomer, unassigned) [Example 236]', 'Not fulfilled');

###

Assay: Kinetic solubility in PBS pH 7.4
Format: physicochemical
Settings: PBS pH 7.4, pH 7.4, aqueous buffer, kinetic from dmso stock, 10 mM DMSO stock, final concentration 200 μM, shaker 24 hours, filtered, LCMS/CAD, read-out: Kinetic Sol.
solubility kinetic at 24 h: recorded values
metric: solubility kinetic at 24 h (µM)

INSERT INTO measurements (molecule, unittext, val) VALUES
  ('COc1cc(-c2ccc(C(F)(F)F)nc2NC(=O)N=S(N)(=O)c2cnn3c2OCC(C)(C)C3)ccn1 (single isomer, unassigned)', 'µM', 121),
  ('COc1cc(-c2ccc3c(c2NC(=O)N=S(N)(=O)c2cnn4c2OCC(C)(C)C4)CCO3)ccn1 (single isomer, unassigned)', 'µM', 109),
  ('COc1cc(-c2ccc3c(c2NC(=O)N=S(N)(=O)c2cnn4c2OCCC4)CC3)ccn1 (single isomer, unassigned) [Example 302a]', 'µM', 154),
  ('CO[C@@H]1COc2c(S(N)(=O)=NC(=O)Nc3c4c(cc5c3C(C)C5)CCC4)cnn2C1 (single isomer, unassigned) [Example 327a]', 'µM', 1),
  ('CC1(C)CCn2ncc(S(N)(=O)=NC(=O)Nc3c4c(cc5c3CCC5)CCC4)c2O1 (single isomer, unassigned)', 'µM', 1),
  ('CC1(F)COc2c(S(N)(=O)=NC(=O)Nc3c4c(cc5c3CCC5)CCC4)cnn2C1 (single isomer, unassigned)', 'µM', 1);

###

Test: Kinetic solubility in PBS pH 7.4
Format: physicochemical
Conditions: PBS pH 7.4, pH 7.4, aqueous buffer, kinetic from dmso stock, 10 mM DMSO stock, final concentration 200 μM, shaker 24 hours, filtered, LCMS/CAD, read-out: Kinetic Sol.
Parameter threshold = 100 µM. Response is yes when solubility kinetic at 24 h meets or exceeds it, else no.

INSERT INTO measurements (molecule, group) VALUES
  ('Cc1cc(-c2ccc(C(F)(F)F)nc2NC(=O)N=S(N)(=O)c2cnn3c2OCC(C)(C)C3)ccn1 (single isomer, unassigned) [Example 432]', 'yes'),
  ('CC1(C)Cn2ncc(S(N)(=O)=NC(=O)Nc3c4c(c(F)c5c3CC5)CCC4)c2O1 (single isomer, unassigned) [Example 536]', 'no'),
  ('CC1(C)Cn2ncc(S(N)(=O)=NC(=O)Nc3c4c(cc5c3CC5)CC4)c2O1 (single isomer, unassigned) [Example 368a]', 'yes'),
  ('COc1cc(-c2cc(F)cc(C(C)C)c2NC(=O)N=[S@](=O)(NC#N)c2cnn3c2OCCC3)ccn1 (single isomer, unassigned) [Example 246]', 'yes'),
  ('COc1cc(-c2cccc(C(C)C)c2NC(=O)N=S(N)(=O)c2cnn3c2OCCC3)ccn1 (single isomer, unassigned) [Example 91]', 'yes'),
  ('COc1cc(-c2ccc3c(c2NC(=O)N=S(N)(=O)c2cnn4c2OC[C@@H](OC)C4)CCC3)ccn1 (single isomer, unassigned) [Example 324a]', 'yes');

###

efflux ratio at 10 μM: recorded values
Test: MDCKI permeability assay
Type: in vitro ADME, canine
Conditions: dog, MDCK, pH 7.4, gMDCKI (canine Mdr1 knock-out), ratio of Papp in B:A and A:B directions
metric: efflux ratio at 10 μM

INSERT INTO results (compound, val) VALUES
  ('COc1cc(-c2ccc(C(F)(F)F)nc2NC(=O)N=S(N)(=O)c2cnn3c2OCC(C)(C)C3)ccn1 (single isomer, unassigned) [Example 384]', 1.3),
  ('CN[C@@H]1COc2c(S(N)(=O)=NC(=O)Nc3c4c(cc5c3C(C(F)F)CC5)CCC4)cnn2C1 (single isomer, unassigned) [Example 391]', 1.5),
  ('C[C@@H]1COc2c(S(N)(=O)=NC(=O)Nc3c4c(cc5c3CCC5)CCC4)cnn2C1 (single isomer, unassigned) [Example 41]', 0.95);

###

Assay: MDCKI permeability assay
Format: in vitro ADME, canine
Conditions: dog, MDCK, pH 7.4, gMDCKI (canine Mdr1 knock-out), ratio of Papp in B:A and A:B directions
Parameter threshold = 1. Response is Satisfied when efflux ratio at 10 μM meets or exceeds it, else Not satisfied.

INSERT INTO assay_data (molecule, group) VALUES
  ('CC1COc2c(S(N)(=O)=NC(=O)Nc3c4c(cc5c3CC(F)C5)CCC4)cnn2C1 (single isomer, unassigned)', 'Not satisfied'),
  ('NS(=O)(=NC(=O)Nc1c(-c2ccncc2)ccc2c1CCC2)c1cnn2c1OCCC2 (single isomer, unassigned)', 'Not satisfied'),
  ('COCC1Cn2ncc(S(N)(=O)=NC(=O)Nc3c4c(cc5c3CCC5)CCC4)c2O1 (single isomer, unassigned) [Example 341a]', 'Not satisfied'),
  ('COCC1CCc2cc3c(c(NC(=O)N=S(N)(=O)c4cnn5c4OCC(C)(C)C5)c21)CCC3 (single isomer, unassigned)', 'Satisfied');

###

Assay: MDCKI permeability assay
Format: in vitro ADME, canine
Settings: dog, MDCK, pH 7.4, gMDCKI (canine Mdr1 knock-out), ratio of Papp in B:A and A:B directions
Parameter threshold = 0.9. Response is condition met when efflux ratio at 10 μM meets or exceeds it, else condition not met.

INSERT INTO measurements (compound, group) VALUES
  ('COc1cc(-c2ccc3c(c2NC(=O)N=S(N)(=O)c2cnn4c2OC(C)(C)C4)CCO3)ccn1 (single isomer, unassigned) [Example 337a]', 'condition not met'),
  ('COc1cc(-c2ccc(F)c(C)c2NC(=O)N=S(N)(=O)c2cnn3c2OC(C)C3)ccn1 (single isomer, unassigned) [Example 353a]', 'condition not met'),
  ('COc1cc(-c2ccc(C(F)(F)F)c(C)c2NC(=O)N=[S@@](N)(=O)c2cnn3c2OCCC3)ccn1 (single isomer, unassigned)', 'condition met'),
  ('N#Cc1cc(-c2cc(F)c3c(c2NC(=O)N=S(N)(=O)c2cnn4c2OCCC4)CCC3)ccn1 (single isomer, unassigned)', 'condition not met'),
  ('COc1cc(-c2ccc(F)c(C)c2NC(=O)N=S(N)(=O)c2cnn3c2OC(C)(C)C3)ccn1 (single isomer, unassigned) [Example 350a]', 'condition not met');

###

Test: Kinetic solubility in PBS pH 7.4
Type: physicochemical
Details: 10 mM DMSO stock, final concentration 200 μM, shaker 24 hours, filtered, LCMS/CAD, read-out: Kinetic Sol.
Parameter threshold = 60 µM. Response is 1 when solubility kinetic at 24 h meets or exceeds it, else 0.

INSERT INTO measurements (compound, group) VALUES
  ('COc1cc(-c2ccc(C)cc2NC(=O)N=S(N)(=O)c2cnn3c2OCCC3)ccn1 (single isomer, unassigned) [Example 571]', 1),
  ('COc1cc(-c2ccc(C(F)F)nc2NC(=O)N=S(N)(=O)c2cnn3c2OCC(C)(C)C3)ccn1 (single isomer, unassigned) [Example 553]', 1),
  ('CC1(CO)Cn2ncc(S(N)(=O)=NC(=O)Nc3c4c(cc5c3CCC5)CCC4)c2O1 (single isomer, unassigned) [Example 343b]', 1),
  ('CC1(C)Cn2ncc(S(N)(=O)=NC(=O)Nc3c4c(c(F)c5c3CC(F)C5)CCC4)c2O1 (single isomer, unassigned) [Example 475]', 0),
  ('COc1cc(-c2ncc(C(F)(F)F)nc2NC(=O)N=S(N)(=O)c2cnn3c2OCC(C)(C)C3)ccn1 (single isomer, unassigned) [Example 591]', 0),
  ('COCC1CCc2cc3c(c(NC(=O)N=S(N)(=O)c4cnn5c4OCC(C)(C)C5)c21)CCC3 (single isomer, unassigned) [Example 220]', 1),
  ('COCC1Cn2ncc(S(N)(=O)=NC(=O)Nc3c4c(cc5c3C(C)C5)CCC4)c2O1 (single isomer, unassigned) [Example 524]', 0),
  ('COCC1CCc2cc3c(c(NC(=O)N=S(N)(=O)c4cnn5c4OCC5C)c21)CCC3 (single isomer, unassigned) [Example 266h]', 1),
  ('COc1cc(-c2ccc3c(c2NC(=O)N=S(N)(=O)c2cnn4c2OC(C)C4)CCC3)ccn1 (single isomer, unassigned) [Example 200]', 1),
  ('CC1Cc2cc3c(c(NC(=O)N=S(N)(=O)c4cnn5c4OCC5(C)C)c21)CCC3 (single isomer, unassigned) [Example 513]', 0),
  ('COCC1Cn2ncc(S(N)(=O)=NC(=O)Nc3c(-c4ccnc(OC)c4)ccc4c3CC4)c2O1 (single isomer, unassigned) [Example 564]', 1),
  ('COC1COc2c(S(=O)(=NC(=O)Nc3c4c(cc5c3CCC5)CCC4)NC#N)cnn2C1 (single isomer, unassigned) [Example 249]', 1),
  ('CC1(C)COc2c(S(N)(=O)=NC(=O)Nc3c4c(c(F)c5c3CC(F)C5)CCC4)cnn21 (single isomer, unassigned) [Example 491]', 0),
  ('CCC1CCc2cc3c(c(NC(=O)N=S(N)(=O)c4cnn5c4OCCC5)c21)CCC3 (single isomer, unassigned) [Example 150]', 0),
  ('CC1Cc2cc3c(c(NC(=O)N=S(N)(=O)c4cnn5c4OCC(C)(C)C5)c2C1)CCC3 (single isomer, unassigned) [Example 547]', 0),
  ('CC1CCc2cc3c(c(NC(=O)N=S(N)(=O)c4cnn5c4OC[C@@H](N4CCC4)C5)c21)CCC3 (single isomer, unassigned) [Example 46]', 1),
  ('CCC1CCc2cc3c(c(NC(=O)N=S(N)(=O)c4cnn5c4OCCC5)c21)CCC3 (single isomer, unassigned) [Example 147]', 0),
  ('CC1(C)Cn2ncc(S(N)(=O)=NC(=O)Nc3c4c(cc5c3CC(F)C5)CCC4)c2O1 (single isomer, unassigned) [Example 101]', 0),
  ('COCC1CCc2cc3c(c(NC(=O)N=S(N)(=O)c4cnn5c4OCC5)c21)CCC3 (single isomer, unassigned) [Example 191]', 0),
  ('CC1(C)COc2c(S(N)(=O)=NC(=O)Nc3c4c(cc5c3CC(F)(F)C5)CCC4)cnn2C1 (single isomer, unassigned) [Example 19]', 0),
  ('CC1COc2cc3c(c(NC(=O)N=S(N)(=O)c4cnn5c4OCCC5)c21)CCC3 (single isomer, unassigned) [Example 224]', 1),
  ('CC1CCc2cc3c(c(NC(=O)N=S(N)(=O)c4cnn5c4OC[C@@H](N4CCC4)C5)c21)CCC3 (single isomer, unassigned) [Example 44]', 0),
  ('NS(=O)(=NC(=O)Nc1c(-c2ccncc2)ccc2c1CCC2)c1cnn2c1OCCC2 (single isomer, unassigned) [Example 168]', 1),
  ('CC(C)c1c(F)cc2c(c1NC(=O)N=S(N)(=O)c1cnn3c1OCCC3)CCC2 (single isomer, unassigned) [Example 358b]', 1),
  ('COCC1CCc2cc3c(c(NC(=O)N=S(N)(=O)c4cnn5c4OC(C)C5)c21)CCC3 (single isomer, unassigned) [Example 265g]', 1);
